Target: T1, cynomolgus monkey transferrin (cynomolgus monkey, UniProt A0A2K5UXZ0 20-695)
T1 construct: also called cynomolgus transferrin
Assay: SPR, BIAcore T200, cynomolgus monkey transferrin as ligand, sdAb as analyte
EXPERIMENTAL_ENDPOINT: pKd
One number for each entry, as −log10 of the molar value.

Worked cases, answers included:
BINDER	NUMBER
AS01299VH3a-A49 (VHH, Humanized variant of AS01299, C-terminal 6xHis tag) VHH: EVQLVESGGGLVQPGGSLRLSCAASGSIFSIATMAWYRQAPGKGLELVSGITRSGSTNYRDSVKGRFTISRDNSKNTMYLQMNSLRAEDTAVYYCTDYSSRYYHDYWGQGTLVTVSS	10.00
AS01274 sdAb (VHH, Llama sdAb made in E. coli with a C-terminal 6xHis tag; also called sdAb AS01274) VHH: QVQLVESGGGLVQPGGSLRLSCVASGSIASIATMAWYRQAPGQQRELVAGITRGGSTKYADSVKGRFTISRDNAKNTLYLQMNSLKPDDTAVYYCTDYSRKYYQDYWGQGTQVTVSS	11.17

Dear colleague, could you please provide pKd for the binders listed below?
1. AS01299VH4-L47 (VHH, Humanized variant of AS01299, C-terminal 6xHis tag; also called AS01299VH4-L47-2) VHH: EVQLVESGGGLVQPGGSLRLSCAASGSIFSIATMAWYRQAPGKGLEWVSGITRSGSTNYRDSVKGRFTISRDNSKNTLYLQMNSLRAEDTAVYYCTDYSSRYYHDYWGQGTLVTVSS
2. AS01274VHa-A49 (VHH, Humanized variant of AS01274, C-terminal 6xHis tag) VHH: EVQLVESGGGLVQPGGSLRLSCAASGSIASIATMAWYRQAPGKGLELVSGITRGGSTKYADSVKGRFTISRDNSKNTLYLQMNSLRAEDTAVYYCTDYSRKYYQDYWGQGTLVTVSS
3. AS01299VH3a-M78 (VHH, Humanized variant of AS01299, C-terminal 6xHis tag) VHH: EVQLVESGGGLVQPGGSLRLSCAASGSIFSIATMAWYRQAPGKGLELVAGITRSGSTNYRDSVKGRFTISRDNSKNTLYLQMNSLRAEDTAVYYCTDYSSRYYHDYWGQGTLVTVSS
4. AS01299VH3a-L47 (VHH, Humanized variant of AS01299, C-terminal 6xHis tag; also called AS01299VH3a-L47-2) VHH: EVQLVESGGGLVQPGGSLRLSCAASGSIFSIATMAWYRQAPGKGLEWVAGITRSGSTNYRDSVKGRFTISRDNSKNTMYLQMNSLRAEDTAVYYCTDYSSRYYHDYWGQGTLVTVSS
5. AS01274VHa (VHH, Humanized variant of AS01274, C-terminal 6xHis tag) VHH: EVQLVESGGGLVQPGGSLRLSCAASGSIASIATMAWYRQAPGKGLELVAGITRGGSTKYADSVKGRFTISRDNSKNTLYLQMNSLRAEDTAVYYCTDYSRKYYQDYWGQGTLVTVSS

1. 10.15
2. 11.05
3. 10.24
4. 10.28
5. 10.96
